Target: human IBAT (Homo sapiens)
Construct: expressed in transfected cells; host or cells: Baby hamster kidney (BHK) cells, clone H14
Sequence (Q12908 whole entry): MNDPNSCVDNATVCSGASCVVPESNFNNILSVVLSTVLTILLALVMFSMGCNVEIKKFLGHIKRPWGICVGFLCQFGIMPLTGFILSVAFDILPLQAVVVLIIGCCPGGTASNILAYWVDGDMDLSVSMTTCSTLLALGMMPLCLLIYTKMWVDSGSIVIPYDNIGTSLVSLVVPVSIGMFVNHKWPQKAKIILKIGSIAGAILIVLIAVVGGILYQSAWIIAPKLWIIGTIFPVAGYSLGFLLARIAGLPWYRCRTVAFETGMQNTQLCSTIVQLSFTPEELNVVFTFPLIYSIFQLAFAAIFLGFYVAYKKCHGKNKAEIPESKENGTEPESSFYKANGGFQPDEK
Experiment: In vitro assay of IBAT-mediated uptake of [14C]-taurocholate (TC) in H14 cells
Format: cell-based
Conditions: read-out: Human TC IC50
pIC50: −log10 of the molar value.

{"compound": "CCCCC1(CCCC)CS(=O)(=O)c2ccc(N(C)C)cc2C(c2cccc(OCCOCCOCC[n+]3ccn(Cc4ccccc4)c3)c2)C1O (centres unmarked) [Example 1359]", "pIC50": 7.85}
{"compound": "CCCCC1(CCCC)CS(=O)(=O)c2ccc(N(C)C)cc2C(c2ccc(OCCOCCOCCOc3ccc(C4c5cc(N(C)C)ccc5S(=O)(=O)CC(CCCC)(CCCC)C4O)cc3F)c(F)c2)C1O (centres unmarked) [Example 1194]", "pIC50": 5.80}
{"compound": "CCCCC1(CC)CS(=O)(=O)c2ccc(N(C)C)cc2C(c2cccc(OCCOCCOCC[N+](C)(C)C)c2)C1O (centres unmarked) [Example 1117]", "pIC50": 8.00}
{"compound": "CCCCC1(CC)CS(=O)(=O)c2ccc(NS(C)(=O)=O)cc2C(c2ccccc2)C1O (centres unmarked) [Example 105]", "pIC50": 6.22}
{"compound": "CCCCC1(CCCC)CS(=O)(=O)c2ccc(N(C)C)cc2C(c2ccc(OCCOCCOCC[N+]3(C)CCN(C)CC3)c(F)c2)C1O (centres unmarked) [Example 1033]", "pIC50": 8.70}
{"compound": "CCCCC1(CC)CS(=O)(=O)c2ccc(N(C)C)cc2C(c2ccc(OC)cc2)C1O (centres unmarked) [Example 1099]", "pIC50": 8.20}
{"compound": "CCCCC1(CCCC)CS(=O)(=O)c2ccc(N3CCN(C)CC3)cc2C(c2ccc(OC)cc2)C1O (centres unmarked) [Example 1195]", "pIC50": 5.77}
{"compound": "CCCCC1(CCCC)CS(=O)(=O)c2ccc(N(C)C)cc2C(c2cc(Cl)cc(Cl)c2)C1O (centres unmarked) [Example 1207]", "pIC50": 7.17}
{"compound": "CCCCC1(CC)CS(=O)(=O)c2ccc(O)cc2C(c2ccc(F)cc2)C1O (centres unmarked) [Example 270]", "pIC50": 6.92}
{"compound": "CCCCC1(CC)CS(=O)(=O)c2ccc(N(C)C=O)cc2C(c2ccccc2)C1O (centres unmarked) [Example 1214]", "pIC50": 6.12}
{"compound": "CCCCC1(CCCC)CS(=O)(=O)c2ccc(N(C)C)cc2C(c2cccc(OCCOCCOCC[n+]3cccc(CC(=O)O)c3)c2)C1O (centres unmarked) [Example 1272]", "pIC50": 7.33}
{"compound": "CCCCC1(CCCC)CS(=O)(=O)c2c(F)cccc2C(c2ccc(OC)cc2)C1O (centres unmarked) [Example 1309]", "pIC50": 6.62}
{"compound": "CCCCC1(CC)CS(=O)(=O)c2ccc(OC)cc2C(c2cccc(OC)c2)C1O (single isomer, unassigned) [Example 262]", "pIC50": 7.15}
{"compound": "CCCCC1(CC)CS(=O)(=O)c2ccc(NC(=O)CBr)cc2C(c2ccccc2)C1O (centres unmarked) [Example 106]", "pIC50": 6.10}
{"compound": "CCCCC1(CC)CS(=O)(=O)c2ccc(N)cc2C(c2ccc(F)cc2)C1O (single isomer, unassigned) [Example 129]", "pIC50": 7.46}
{"compound": "CCCCC1(CCCC)CS(=O)(=O)c2ccc(N(C)C)cc2C(c2cccc(N)c2)C1O (centres unmarked) [Example 1046]", "pIC50": 8.52}
{"compound": "CCCCC1(CCCC)CS(=O)(=O)c2ccc(N(C)C)cc2C(c2ccc(OCCOCC[N+]3(C)CCN(C)CC3)c(F)c2)C1O (centres unmarked) [Example 1006]", "pIC50": 9.00}
{"compound": "CCCCC1(CCCC)CS(=O)(=O)c2ccc(N(C)C)cc2C(c2ccc(OCCOCCOCC[N+]3(C)CC[N+](C)(C)CC3)c(F)c2)C1O (centres unmarked) [Example 1354]", "pIC50": 8.22}
{"compound": "CCCCC1(CCCC)CS(=O)(=O)c2ccc(N(C)C)cc2C(c2cccc(OC)c2)C1O (centres unmarked) [Example 1124]", "pIC50": 7.96}
{"compound": "CCCCC1(CCCC)CS(=O)(=O)c2ccc(N(C)C)cc2C(c2cccc(C[N+](C)(C)C)c2)C1O (centres unmarked) [Example 1234]", "pIC50": 7.17}
{"compound": "CCCCC1(CCCC)CS(=O)(=O)c2ccc(N(C)C)cc2C(c2ccccc2)C1O (centres unmarked) [Example 1123]", "pIC50": 7.96}
{"compound": "CCCCC1(CCCC)CS(=O)(=O)c2ccc(N(C)C)cc2C(c2cccnc2)C1O (centres unmarked) [Example 1108]", "pIC50": 8.12}
{"compound": "CCCCC1(CC)CS(=O)(=O)c2ccc(SC)cc2C(c2cccc(OC)c2)C1O (single isomer, unassigned) [Example 143]", "pIC50": 7.52}
{"compound": "CCCCC1(CC)CS(=O)(=O)c2ccc(OC)cc2C(c2ccc(F)cc2)C1O (centres unmarked) [Example 269]", "pIC50": 7.10}
{"compound": "CCCCC1(CCCC)CS(=O)(=O)c2ccc(N(C)C)cc2C(c2ccc(O)cc2)C1O (centres unmarked) [Example 1037]", "pIC50": 8.66}
{"compound": "CCCCC1(CCCC)CS(=O)(=O)c2ccc(N(C)C)cc2C(c2cccc(CN(C)C)c2)C1O (centres unmarked) [Example 1241]", "pIC50": 7.33}
{"compound": "CCCCC1(CCCC)CS(=O)(=O)c2c(SC)cccc2C(c2ccc(OC)cc2)C1O (centres unmarked) [Example 1215]", "pIC50": 6.72}
{"compound": "CCCCC1(CCCC)CS(=O)(=O)c2ccc(N(C)C)cc2C(c2ccc(OCCOCCOCC[N+](C)(C)C)cc2)C1O (centres unmarked) [Example 1076]", "pIC50": 8.35}
{"compound": "CCCCC1(CCCC)CS(=O)(=O)c2ccc(N(C)C)cc2C(c2cccc(OCCOCCOCC[n+]3ccccc3C)c2)C1O (centres unmarked) [Example 1083]", "pIC50": 8.30}

Source: patent US6784201B2
